Target: 5-hydroxytryptamine receptor 1B (Rattus norvegicus)
Sequence (P28564 whole entry): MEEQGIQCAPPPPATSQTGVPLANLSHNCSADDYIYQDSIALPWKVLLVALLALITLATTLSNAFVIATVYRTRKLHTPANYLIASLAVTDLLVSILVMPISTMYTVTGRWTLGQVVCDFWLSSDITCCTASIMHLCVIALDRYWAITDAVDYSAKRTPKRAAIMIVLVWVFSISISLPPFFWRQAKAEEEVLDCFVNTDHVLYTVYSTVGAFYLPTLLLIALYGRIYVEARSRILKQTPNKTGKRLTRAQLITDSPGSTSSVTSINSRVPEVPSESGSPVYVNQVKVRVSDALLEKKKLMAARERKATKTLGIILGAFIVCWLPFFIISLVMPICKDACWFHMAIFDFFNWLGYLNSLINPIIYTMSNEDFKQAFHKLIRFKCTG
Assay: The compound was tested for the binding affinity against 5-hydroxytryptamine 1B receptor using [3H]5-HT as radioligand.
Reported pKi is given for each of the following compounds.
Entry type: numeric. Quantity: pKi, the -log10 of concentration in molar units.

Req: Please look up its pKi: Cc1cccc2nc(N3CCNCC3)c3cccn3c12
Resp: 6.60

----------
Molecular target: 5-hydroxytryptamine receptor 2A (Rattus norvegicus)
Sequence (P14842 whole entry): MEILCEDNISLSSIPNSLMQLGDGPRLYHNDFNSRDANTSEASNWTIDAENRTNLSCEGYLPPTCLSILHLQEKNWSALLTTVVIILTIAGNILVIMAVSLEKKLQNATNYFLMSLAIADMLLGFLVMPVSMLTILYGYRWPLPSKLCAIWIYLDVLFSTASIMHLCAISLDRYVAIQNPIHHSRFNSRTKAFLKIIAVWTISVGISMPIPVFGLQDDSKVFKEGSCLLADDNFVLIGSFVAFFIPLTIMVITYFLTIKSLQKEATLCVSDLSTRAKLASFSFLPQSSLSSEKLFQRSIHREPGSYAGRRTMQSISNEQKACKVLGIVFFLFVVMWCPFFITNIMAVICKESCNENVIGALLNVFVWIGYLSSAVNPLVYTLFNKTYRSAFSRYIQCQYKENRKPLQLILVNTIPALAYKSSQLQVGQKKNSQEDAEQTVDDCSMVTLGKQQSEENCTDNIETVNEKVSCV
Test: The compound was tested for the binding affinity against 5-hydroxytryptamine 2A receptor using [3H]ketanserin as radioligand
readoutLabel: Ki (nM)
Report the value in nM with no unit label.

Req: Endpoint output: Ki of c1ccc(CN2CCN(c3nc4ncccc4n4cccc34)CC2)cc1 . Value?
Resp: 794

----------
Biological target: Serotonin 3 (5-HT3) receptor (Rattus norvegicus, UniProt P35563+Q9JJ16)
Sequence (P35563 whole entry): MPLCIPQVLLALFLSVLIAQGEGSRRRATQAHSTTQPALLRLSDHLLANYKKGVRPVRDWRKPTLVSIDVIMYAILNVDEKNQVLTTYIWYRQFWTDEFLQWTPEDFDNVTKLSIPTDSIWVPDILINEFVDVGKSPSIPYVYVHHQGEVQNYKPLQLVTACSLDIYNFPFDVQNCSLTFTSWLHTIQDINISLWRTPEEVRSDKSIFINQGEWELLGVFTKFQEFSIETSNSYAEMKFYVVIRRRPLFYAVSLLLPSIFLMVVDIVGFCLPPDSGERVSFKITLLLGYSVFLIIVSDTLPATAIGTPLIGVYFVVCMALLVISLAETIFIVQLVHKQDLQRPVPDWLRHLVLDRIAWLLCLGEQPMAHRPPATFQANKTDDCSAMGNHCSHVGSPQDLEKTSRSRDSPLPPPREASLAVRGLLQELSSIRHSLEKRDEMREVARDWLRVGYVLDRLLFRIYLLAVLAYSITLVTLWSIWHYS
Sequence (Q9JJ16 whole entry): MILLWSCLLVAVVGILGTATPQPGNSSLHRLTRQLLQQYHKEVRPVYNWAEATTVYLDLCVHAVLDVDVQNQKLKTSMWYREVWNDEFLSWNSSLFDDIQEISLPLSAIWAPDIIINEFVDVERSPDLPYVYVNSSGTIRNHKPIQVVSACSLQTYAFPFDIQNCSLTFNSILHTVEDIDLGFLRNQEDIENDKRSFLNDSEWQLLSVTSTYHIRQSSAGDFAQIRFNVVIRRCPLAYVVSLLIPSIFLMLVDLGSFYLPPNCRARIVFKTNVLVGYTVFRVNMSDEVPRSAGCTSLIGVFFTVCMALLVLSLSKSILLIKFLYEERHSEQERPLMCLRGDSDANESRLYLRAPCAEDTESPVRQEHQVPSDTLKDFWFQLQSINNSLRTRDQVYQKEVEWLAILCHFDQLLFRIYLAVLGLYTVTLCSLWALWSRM
Experiment: The compound was tested for binding affinity against 5-hydroxytryptamine 3 receptor from NG108-15 cells using [3H]zacopride as radioligand
Assay type: cell-based
IC50 reference
Could you give me the number in nM? Just the number is fine.

Below, each entry is followed by its recorded IC50 result.
# compound, IC50, nM
measured = [
    ("c1csc(CN2CCN(c3nc4cccnc4n4cccc34)CC2)c1", 6.4),
    ("Cc1cccc2nc(N3CCN(C)CC3)c3cccn3c12", 0.26),
]

We now examine a further molecule.
Req: Quick one: IC50 for CN1CCN(c2nc3cccnc3n3cccc23)CC1 ?
Resp: 5.4

----------
Target: Serotonin 3 (5-HT3) receptor (Rattus norvegicus, UniProt P35563+Q9JJ16)
Assay: The compound was tested for binding affinity against 5-hydroxytryptamine 3 receptor from NG108-15 cells (using [3H]zacopride as radioligand)
Assay type: cell-based
readoutLabel: IC50 (nM)
Write the answer as a number in nM, unit excluded.

Req: If you can, please state the reported IC50 value of CN1CCN(c2nc3ncccc3n3cccc23)CC1 .
Resp: 9.3

----------
Molecular target: Serotonin 3 (5-HT3) receptor
Experiment: Effective concentration against 5-Hydroxytryptamine 3 receptor by measuring [14C]guanidinium uptake on NG108-15 cells.
readoutLabel: EC50 (nM)
Lab book: enter the figure in nM, no units written.

# compound, readoutLabel, resultValue
records = [
    ("Fc1ccc2c(c1)nc(N1CCN(Cc3ccco3)CC1)c1cccn12", "EC50", 6.6),
    ("Cc1cccc2nc(N3CCN(Cc4ccccc4)CC3)c3cccn3c12", "EC50", 12),
    ("CN1CCN(c2nc3ccccc3n3ccnc23)CC1", "EC50", 15),
]

Please examine the following record next.
Req: What value of measured EC50 is listed for CN1CCN(c2nc3cc(F)ccc3n3ccnc23)CC1 ?
Resp: 7.2

----------
Biological target: UniProtKB P28564
Test: The compound was tested for the binding affinity against 5-hydroxytryptamine 1B receptor using [3H]5-HT as radioligand.
readoutLabel: pKi
Remember, pKi is on a log scale: it is -log10 of the molar concentration.

These recorded examples may help you get a feel for the data.
# compound, pKi
measured = [
    ("c1csc(CN2CCN(c3nc4cccnc4n4cccc34)CC2)c1", 5.40),
    ("OCCN1CCN(c2nc3cccc(F)c3n3cccc23)CC1", 5.80),
]

Req: Can you look up the measured pKi of Cc1cccc2nc(N3CCN(C)CC3)c3cccn3c12 for me?
Resp: 6.40
